From: the supplement of paper PMC10702517

Experiment: chemical recovery from spiked human plasma; higher = better extraction
Conditions: pooled human plasma; extraction method: SPE only (HLB 96-well), PES comparison experiment
# thresholds on chemical recovery define classes: low: < 40%; medium: ≥ 40% and < 50%; high: ≥ 50%

compound: CCN(CC)c1nc(C)cc(OP(=S)(OC)OC)n1
answer_label: medium

Q: Sort into band: Nc1ccc(-c2ccc(N)c(Cl)c2)cc1Cl
Result: low

Q: Sort into band: c1cc2c3c(c1)ccc1cccc(c13)C2
Result: low

Q: Sort into band: Cc1cccc(C)c1N(Cn1cccn1)C(=O)CCl
Result: high

Q: Sort into band: CC(C)NCC(O)COc1ccc(COCCOC(C)C)cc1 (stereo not given)
Result: medium

Q: Sort into band: CCNc1nc(NC(C)C)nc(SC)n1
Result: medium

Q: Sort into band: Cc1cc(-c2ccc(N)c(C)c2)ccc1N
Result: low

Q: Sort into band: CC(=O)c1ccc2ccccc2c1
Result: high

Q: Sort into band: CCNc1nc(NC(C)(C)C)[nH]c(=O)n1 [Terbuthylazine-2-hydroxy]
Result: medium

Q: Sort into band: CN1C(=O)CN=C(c2ccccc2)c2cc(Cl)ccc21
Result: medium

Q: Sort into band: Fc1ccc([C@@H]2CCNC[C@H]2COc2ccc3c(c2)OCO3)cc1
Result: medium

Q: Sort into band: N#Cc1cc(Br)c(O)c(Br)c1
Result: high

Q: Sort into band: CC(C)(C)Nc1nc(N)nc(Cl)n1
Result: medium

Q: Sort into band: O=C(Nc1ccc(Cl)cc1)Nc1ccc(Cl)c(Cl)c1
Result: low

Q: Sort into band: Cc1cccc(C)c1NC(=O)CS(=O)(=O)O [Dimethachlor CGA369-873]
Result: medium

Q: Sort into band: c1cc2ccc3cccc4ccc(c1)c2c34
Result: low

###

Experiment: chemical recovery into PDMS from spiked human plasma; higher = better extraction
Settings: pooled human plasma; extraction method: PES with PDMS; equilibration time (d): 3
quantity_kind: chemical recovery into PDMS (%)
Provide only the numeric value, understood in %.

Q: chemical recovery into PDMS lookup needed for CO/N=C(/C1=NOCCO1)c1ccccc1Oc1ncnc(Oc2ccccc2Cl)c1F , thanks.
Result: 50.3

Q: chemical recovery into PDMS lookup needed for CN1C(=O)C(O)N=C(c2ccccc2)c2cc(Cl)ccc21 (centres undefined) , thanks.
Result: 16.5

Q: chemical recovery into PDMS lookup needed for O=C(O)c1ccc(Cl)cc1Cl , thanks.
Result: 0.296

Q: chemical recovery into PDMS lookup needed for CC1(C)CC(=O)CC(C)(C)N1 , thanks.
Result: 1.17

Q: chemical recovery into PDMS lookup needed for Clc1ccc(Cl)c(-c2ccccc2Cl)c1 , thanks.
Result: 50.3

Q: chemical recovery into PDMS lookup needed for CC(C)c1ccc(NC(=O)N(C)C)cc1 , thanks.
Result: 40.1

Q: chemical recovery into PDMS lookup needed for CC1CN(C2CCCCCCCCCCC2)CC(C)O1 (centres undefined) , thanks.
Result: 1.32

Q: chemical recovery into PDMS lookup needed for Fc1ccc(Oc2ccnc3cc(Cl)cc(Cl)c23)cc1 , thanks.
Result: 50.5

Q: chemical recovery into PDMS lookup needed for CC(C)Oc1cc(-n2nc(C(C)(C)C)oc2=O)c(Cl)cc1Cl , thanks.
Result: 40.4

Q: chemical recovery into PDMS lookup needed for CC(=O)OCC(=O)[C@@]12OC3(CCCC3)O[C@@H]1C[C@H]1[C@@H]3CCC4=CC(=O)C=C[C@]4(C)[C@@]3(F)[C@@H](O)C[C@@]12C [Amcinonide] , thanks.
Result: 38.1

Q: chemical recovery into PDMS lookup needed for CO/C=C(/C(=O)OC)c1ccccc1Oc1cc(Oc2ccccc2C#N)ncn1 , thanks.
Result: 43.9

Q: chemical recovery into PDMS lookup needed for Cc1cc(=O)oc2cc(N)ccc12 , thanks.
Result: 17.9

Q: chemical recovery into PDMS lookup needed for CCNc1nc(Cl)nc(NC(C)(C)C)n1 , thanks.
Result: 41.3

Q: chemical recovery into PDMS lookup needed for COc1ccccc1Oc1c(NS(=O)(=O)c2ccc(C(C)(C)C)cc2)nc(-c2ncccn2)nc1OCCO , thanks.
Result: 0.517

Q: chemical recovery into PDMS lookup needed for CCNc1ccc2c(C)cc(=O)oc2c1 [7-(Ethylamino)-4-methylcoumarin] , thanks.
Result: 28.7

Q: chemical recovery into PDMS lookup needed for CC(C)(C)NC(=O)[C@H]1CC[C@H]2[C@@H]3CC[C@H]4NC(=O)C=C[C@]4(C)[C@H]3CC[C@]12C [Finasteride] , thanks.
Result: 37.9

Q: chemical recovery into PDMS lookup needed for c1ccc2c(c1)Cc1cc3ccccc3cc1-2 , thanks.
Result: 107

Q: chemical recovery into PDMS lookup needed for CN(C)C(=O)Nc1ccc(Cl)c(Cl)c1 , thanks.
Result: 36.3

Q: chemical recovery into PDMS lookup needed for CN1CCN(C)C1=O , thanks.
Result: 2.57
